// Activity lookup, one value per entry
molecular target: Mu-type opioid receptor (Homo sapiens) (UniProt P35372); test: Agonist activity at human mu opioid receptor expressed in CHO cells assessed as stimulation of [35S]GTPgammaS binding at 1 uM relative to DAMGO; type: functional, cell-based
Sequence (P35372 whole entry): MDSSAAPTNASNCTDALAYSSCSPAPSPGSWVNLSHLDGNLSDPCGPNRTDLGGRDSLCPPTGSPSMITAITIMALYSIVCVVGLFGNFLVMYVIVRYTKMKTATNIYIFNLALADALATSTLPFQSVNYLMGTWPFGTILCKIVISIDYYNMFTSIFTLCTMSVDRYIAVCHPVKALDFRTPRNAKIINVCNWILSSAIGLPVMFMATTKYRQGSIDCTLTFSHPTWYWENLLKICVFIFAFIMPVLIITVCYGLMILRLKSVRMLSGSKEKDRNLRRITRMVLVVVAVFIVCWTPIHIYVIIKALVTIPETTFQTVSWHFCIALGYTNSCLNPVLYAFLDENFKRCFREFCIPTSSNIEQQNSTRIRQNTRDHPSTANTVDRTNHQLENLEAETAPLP
Numbers only; they are read as %.

compound	readout.kind	unit.of.measurement	meas.value
Oc1ccc2c3c1O[C@H]1c4c(c5cccc6c5n4CCCC6)C[C@@]4(O)[C@@H](C2)N(CC2CC2)CC[C@]314	Activity	%	-1

Supply recorded Activity for CCn1c2c(c3cccc(C)c31)C[C@@]1(O)[C@H]3Cc4ccc(OC)c5c4[C@@]1(CCN3CC1CC1)[C@H]2O5 here.
1

Supply recorded Activity for Oc1ccc2c3c1O[C@H]1c4[nH]c5ccccc5c4C[C@@]4(O)[C@@H](C2)N(CC2CC2)CC[C@]314 [NALTRINDOLE] here.
5
